- System: MAGE-A11:PCF11 interaction (GST-MAGE-A11 and FAM-PCF11_4) (Homo sapiens)
- Construct: GST-MAGE-A11 MHD (human MAGE-A11 MHD amino acid 218-429); made in house; host or cells: E. coli BL21(DE3)
- Sequence (P43364 218-429): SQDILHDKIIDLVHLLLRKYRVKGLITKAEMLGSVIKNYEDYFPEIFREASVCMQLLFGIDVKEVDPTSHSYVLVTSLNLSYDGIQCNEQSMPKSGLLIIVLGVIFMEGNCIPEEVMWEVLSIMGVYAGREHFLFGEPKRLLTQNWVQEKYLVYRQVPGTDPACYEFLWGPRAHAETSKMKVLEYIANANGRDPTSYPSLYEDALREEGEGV
- Test Description: TR-FRET primary / single point screen at 15 µM
- Assay type: binding
- Condition Summary: single point TR-FRET screening of quinoline compounds against MAGE-A11:PCF11; 15 µM
Decision: percent inhibition (TR-FRET) compared against 7; not below it gives 1 (yes), below it gives 0 (no).

- CCCNCCCNc1ccnc2cc(C(F)(F)F)ccc12: 1 (yes)
- CCOC(=O)c1ccc2ncc(C(=O)OCC)c(NCCCN3CCOCC3)c2c1: 1 (yes)
- CCCN(CCCNc1ccnc2cc(C(F)(F)F)ccc12)Cc1cccc2ccccc12: 1 (yes)
- COc1ccccc1CN(CCCNc1ccnc2cc(Cl)ccc12)Cc1ccccc1: 0 (no)
- CCOC(=O)c1cnc2ccc(Br)cc2c1NCCCN1CCOCC1: 0 (no)
- CCCN(CCCNc1ccnc2cc(C(F)(F)F)ccc12)Cc1ccsc1: 1 (yes)
- Clc1ccc2c(NCCCN(CCc3ccccc3)Cc3ccccc3)ccnc2c1: 1 (yes)
- c1ccc(Cc2ccc3c(NCCCNCc4ccco4)ccnc3c2)cc1: 1 (yes)
- CCCN(CCCNc1ccnc2cc(C(F)(F)F)ccc12)Cc1nc2ccccc2s1: 1 (yes)
- CCCN(CCCNc1ccnc2cc(C(F)(F)F)ccc12)Cc1cc(F)ccc1C: 1 (yes)
- COc1cccc(Oc2ccc3c(NCCCNCc4ccco4)ccnc3c2)c1: 1 (yes)
- CCCN(CCCNc1ccnc2cc(C(F)(F)F)ccc12)Cc1cc(C(F)(F)F)ccc1OC: 1 (yes)
- CCCN(CCCNc1c2ccc(Cl)cc2nc2ccc(OC)cc12)Cc1cc(Br)cs1: 0 (no)
- Fc1ccccc1CN(CCCNc1ccnc2cc(Cl)ccc12)Cc1ccccc1: 0 (no)
- CCCN(CCCNc1ccnc2cc(C(F)(F)F)ccc12)Cc1ccc(OC)c(F)c1: 1 (yes)
